Reference source for all entries: ChEMBL document CHEMBL3045637

Tested on: Callosobruchus maculatus
Experiment: Insecticidal activity against adult Callosobruchus maculatus assessed mean survival fraction ratio at 10 ppm measured 72 hr post dose (reference value: 4.4 +/- 0.31 mean survival fraction)
Assay type: functional
test readout: Ratio

| compound | observed |
| --- | --- |
| COc1cc2c(cc1OC)[C@@H]1C(=O)c3c(O)cc4c(c3O[C@@H]1CO2)C=CC(C)(C)O4 | 2.2 |
| COc1cc2c(c3c1C(=O)C[C@@H](c1ccccc1)O3)C=CC(C)(C)O2 | 3.8 |
| COc1cc2c(cc1OC)[C@]1(O)C(=O)c3ccc4c(c3O[C@@H]1CO2)C=CC(C)(C)O4 | 2.9 |
| COc1cc2c(cc1OC)[C@@H]1C(=O)c3ccc4c(c3O[C@@H]1CO2)C=CC(C)(C)O4 | 2.6 |
| C=C(C)[C@H]1Cc2c(ccc3c2O[C@@H]2COc4cc(OC)c(OC)cc4[C@@H]2C3=O)O1 | 1 |
| COc1cc2c(cc1OC)[C@]1(O)C(=O)c3ccc4c(c3O[C@@H]1CO2)C1C(O4)C1(C)C (stereo partly specified) | 2 |
